The following molecules are listed with their measured Inf. C: Trichophyton rubrum B68183, pIC50 values.
- Tested on: Trichophyton rubrum
- assay-protocol: Antifungal activity in vitro, resazurin growth inhibition: Trichophyton rubrum (B68183)
- Assay type: cell-based
The reply should be a number, written without any unit.

Consider the reported Inf. C: Trichophyton rubrum B68183, pIC50 for these molecules:
Clc1cccc2c1CN=C(c1cc3cccc(Cl)c3o1)c1cccn1-2	6.87
CCc1ccc(C2=NCc3c(Cl)cccc3-n3cccc32)nc1	6.05

input: I am curious: what Inf. C: Trichophyton rubrum B68183, pIC50 value has been reported for Fc1cccc2cc(C3=NCc4c(Cl)cccc4-n4cccc43)sc12 ?
output: 6.63

input: I am curious: what Inf. C: Trichophyton rubrum B68183, pIC50 value has been reported for Cc1cccc2oc(C3NCc4ccc(Cl)cc4-n4cccc43)cc12.Cl (racemic) ?
output: 5.31

input: I am curious: what Inf. C: Trichophyton rubrum B68183, pIC50 value has been reported for CC(F)(F)c1ccc(C2=NCc3c(F)cc(F)cc3-n3cccc32)cn1 ?
output: 6.30
